settings: in THF, 318.15 K
property_name: solubility (mole fraction)

Q. Can you share its solubility (mole fraction)? I mean this compound: COc1cc(/C=C/C(=O)CC(=O)/C=C/c2ccc(O)c(OC)c2)ccc1O
A. 0.336

---

settings: in isopropanol, 298.15 K
property_name: solubility (mole fraction)
API note: the answer field is a bare number with no unit suffix.

Q. I am curious: what solubility (mole fraction) value has been reported for COc1cc(/C=C/C(=O)CC(=O)/C=C/c2ccc(O)c(OC)c2)ccc1O ?
A. 0.00254

---

conditions: in DMSO, 313.15 K
property_name: solubility (mole fraction)
Answer as a number with no unit attached.

Q. I have this compound here, COc1cc(/C=C/C(=O)CC(=O)/C=C/c2ccc(O)c(OC)c2)ccc1O , and I need its recorded solubility (mole fraction).
A. 0.338

---

settings: in acetonitrile, 293.15 K
property_name: solubility (mole fraction)

Q. Given the molecule COc1cc(/C=C/C(=O)CC(=O)/C=C/c2ccc(O)c(OC)c2)ccc1O , what is its reported solubility (mole fraction)?
A. 0.00113

---

conditions: in methanol, 278.15 K
property_name: solubility (mole fraction)

Q. Name the reported solubility (mole fraction) value associated with the compound COc1cc(/C=C/C(=O)CC(=O)/C=C/c2ccc(O)c(OC)c2)ccc1O
A. 0.00029

---

conditions: in n-heptane, 283.15 K
property_name: solubility (mole fraction)
Please reply with the value in numeric form only.

Q. Any idea what solubility (mole fraction) was measured for COc1cc(/C=C/C(=O)CC(=O)/C=C/c2ccc(O)c(OC)c2)ccc1O ?
A. 9e-05

---

details: in ethyl acetate, 313.15 K
property_name: solubility (mole fraction)
Output spec: single numeric token, no unit.

Q. Please give the measured solubility (mole fraction) for this compound: COc1cc(/C=C/C(=O)CC(=O)/C=C/c2ccc(O)c(OC)c2)ccc1O
A. 0.00399

---

settings: in ethanol, 288.15 K
property_name: solubility (mole fraction)
Answer field: number only, no words.

Q. Which solubility (mole fraction) is reported for this compound? COc1cc(/C=C/C(=O)CC(=O)/C=C/c2ccc(O)c(OC)c2)ccc1O
A. 0.00056

---

settings: in n-hexane, 293.15 K
property_name: solubility (mole fraction)
API doc: respond with a numeric literal and nothing else, no unit.

Q. Given COc1cc(/C=C/C(=O)CC(=O)/C=C/c2ccc(O)c(OC)c2)ccc1O , state its recorded solubility (mole fraction).
A. 0.00019

---

conditions: in n-heptane, 318.15 K
property_name: solubility (mole fraction)

Q. Would you kindly share the measured solubility (mole fraction) for COc1cc(/C=C/C(=O)CC(=O)/C=C/c2ccc(O)c(OC)c2)ccc1O ?
A. 0.00044

---

details: in DMSO, 303.15 K
property_name: solubility (mole fraction)
Answer with a number only.

Q. Please give the measured solubility (mole fraction) for this compound: COc1cc(/C=C/C(=O)CC(=O)/C=C/c2ccc(O)c(OC)c2)ccc1O
A. 0.271

---

settings: in ethyl acetate, 298.15 K
property_name: solubility (mole fraction)

Q. Query: solubility (mole fraction); subject: COc1cc(/C=C/C(=O)CC(=O)/C=C/c2ccc(O)c(OC)c2)ccc1O
A. 0.00285

---

details: in ethanol, 313.15 K
property_name: solubility (mole fraction)
Reply with the value as a number alone.

Q. For the compound shown here, COc1cc(/C=C/C(=O)CC(=O)/C=C/c2ccc(O)c(OC)c2)ccc1O , give the reported solubility (mole fraction).
A. 0.00111

Reference source for all entries: BigSolDB 2.1
